# Tested On: FGFR3 kinase (Homo sapiens, UniProt P22607)
# Sequence (P22607 23-806): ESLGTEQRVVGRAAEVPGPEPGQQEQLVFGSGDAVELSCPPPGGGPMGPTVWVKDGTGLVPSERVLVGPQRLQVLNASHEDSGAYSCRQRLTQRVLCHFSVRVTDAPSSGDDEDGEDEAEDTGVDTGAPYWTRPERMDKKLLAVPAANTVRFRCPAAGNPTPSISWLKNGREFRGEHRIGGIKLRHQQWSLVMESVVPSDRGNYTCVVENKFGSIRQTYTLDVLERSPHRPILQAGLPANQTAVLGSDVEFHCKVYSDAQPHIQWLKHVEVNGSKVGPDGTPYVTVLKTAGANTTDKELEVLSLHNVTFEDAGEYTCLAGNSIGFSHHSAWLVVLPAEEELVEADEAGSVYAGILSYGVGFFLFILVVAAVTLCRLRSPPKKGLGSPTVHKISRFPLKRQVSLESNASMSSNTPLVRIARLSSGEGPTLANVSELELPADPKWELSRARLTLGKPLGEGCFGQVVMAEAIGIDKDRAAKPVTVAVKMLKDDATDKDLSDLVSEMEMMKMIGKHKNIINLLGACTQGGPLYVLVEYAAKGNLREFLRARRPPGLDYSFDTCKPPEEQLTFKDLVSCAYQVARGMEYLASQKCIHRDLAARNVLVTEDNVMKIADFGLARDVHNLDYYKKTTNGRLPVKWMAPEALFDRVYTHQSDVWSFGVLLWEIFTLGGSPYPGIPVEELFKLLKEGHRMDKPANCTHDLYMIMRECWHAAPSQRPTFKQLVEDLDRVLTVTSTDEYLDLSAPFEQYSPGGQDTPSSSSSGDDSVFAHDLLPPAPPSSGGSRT
pIC50: −log10 of the molar value.
Threshold check on pIC50: at or above 8 gives Fulfilled, strictly below gives Not fulfilled.

Record CNC(=O)c1cc(CCc2cnc(Nc3ccnc(C)c3)nc2)c(F)c(OC)c1 ; criterion: pIC50 no lower than 8. Met?
Not fulfilled

Pending compound:
Record CCS(=O)(=O)n1cc(Nc2ncc(CCc3cc(C(=O)NC)cc(OC)c3F)cn2)cn1 ; criterion: pIC50 no lower than 8. Met?
Not fulfilled

---

Listed here are compounds together with their documented pIC50.
# System: RT-112
# Measurement Notes: Cellular Proliferation Assay (Cell Counting Kit-8), RT-112
# Assay type: cell-based
# Test Settings: Homo sapiens, RT-112 cells, 72 hours
In plain terms, pIC50 is the concentration in mol/L turned into minus its base-10 logarithm.

Known pIC50 results, listed for orientation:
For CNC(=O)c1cc(CCc2cnc(Nc3cnn([C@@H]4CCCN(C)C4)c3)nc2)c(F)c(OC)c1 [Compound 165] , what is its reported pIC50?
6.97

For CNC(=O)c1cc(CCc2cnc(Nc3cnn(CC(F)(F)F)c3)nc2)c(F)c(OC)c1 [Compound 36] , what is its reported pIC50?
6.80

For CNC(=O)c1cc(CCc2cnc(Nc3cnn(-c4ccccn4)c3)nc2)c(Cl)c(OC)c1 [Compound 151] , what is its reported pIC50?
6.20

For CNC(=O)c1cc(CCc2cnc(Nc3ccc(N4C[C@@H](C)N[C@@H](C)C4)cc3)nc2)c(Cl)c(OC)c1 [Compound 79] , what is its reported pIC50?
7.47

For CCN1CCN(c2ccc(Nc3ncc(CCc4cc(C(=O)NC)cc(OC)c4C)cn3)cc2)CC1 [Compound 39] , what is its reported pIC50?
6.47

For CCS(=O)(=O)n1cc(Nc2ncc(CCc3cc(C(=O)NC)cc(OC)c3F)cn2)cn1 [Compound 140] , what is its reported pIC50?
6.36

More entries:
For CCN1CCC(n2cc(Nc3ncc(CCc4cc(C(=O)NC)cc(OC)c4Cl)cn3)cn2)CC1 [Compound 178] , what is its reported pIC50?
6.73

For CCNC(=O)c1cc(CCc2cnc(Nc3cnn(C)c3)nc2)c(Cl)c(OC)c1 [Compound 147] , what is its reported pIC50?
6.48

For CNC(=O)c1cc(CCc2cnc(Nc3cnn(-c4ccc(C)nc4)c3)nc2)c(F)c(OC)c1 [Compound 134] , what is its reported pIC50?
7.08
